# experimental-system: human recombinant HDAC1 (Homo sapiens)
# assay-text: HDAC1 enzyme activity inhibition assay (in vitro, fluorimetric)
# condition-summary: human recombinant HDAC1, fluorimetric kit, 30° C. 60 minutes
readout: IC50 (µM)

(I) C[C@@H]1CN(C(=O)c2ccc(Cl)cc2)C[C@H](C)N1Cc1ccc(C(=O)NO)cc1
(II) Cc1cccc(NC(=O)N2C[C@@H](C)N(Cc3ccc(C(=O)NO)cc3)[C@@H](C)C2)c1
I or II : whose IC50 is greater? Pick one and reply with its label.
I
(I: 7.3 µM, II: 0.8 µM)

* * *

# experimental-system: human recombinant HDAC6 (Homo sapiens)
# Construct: purchased Calbiochem 382180
# Sequence (Q9UBN7 whole entry): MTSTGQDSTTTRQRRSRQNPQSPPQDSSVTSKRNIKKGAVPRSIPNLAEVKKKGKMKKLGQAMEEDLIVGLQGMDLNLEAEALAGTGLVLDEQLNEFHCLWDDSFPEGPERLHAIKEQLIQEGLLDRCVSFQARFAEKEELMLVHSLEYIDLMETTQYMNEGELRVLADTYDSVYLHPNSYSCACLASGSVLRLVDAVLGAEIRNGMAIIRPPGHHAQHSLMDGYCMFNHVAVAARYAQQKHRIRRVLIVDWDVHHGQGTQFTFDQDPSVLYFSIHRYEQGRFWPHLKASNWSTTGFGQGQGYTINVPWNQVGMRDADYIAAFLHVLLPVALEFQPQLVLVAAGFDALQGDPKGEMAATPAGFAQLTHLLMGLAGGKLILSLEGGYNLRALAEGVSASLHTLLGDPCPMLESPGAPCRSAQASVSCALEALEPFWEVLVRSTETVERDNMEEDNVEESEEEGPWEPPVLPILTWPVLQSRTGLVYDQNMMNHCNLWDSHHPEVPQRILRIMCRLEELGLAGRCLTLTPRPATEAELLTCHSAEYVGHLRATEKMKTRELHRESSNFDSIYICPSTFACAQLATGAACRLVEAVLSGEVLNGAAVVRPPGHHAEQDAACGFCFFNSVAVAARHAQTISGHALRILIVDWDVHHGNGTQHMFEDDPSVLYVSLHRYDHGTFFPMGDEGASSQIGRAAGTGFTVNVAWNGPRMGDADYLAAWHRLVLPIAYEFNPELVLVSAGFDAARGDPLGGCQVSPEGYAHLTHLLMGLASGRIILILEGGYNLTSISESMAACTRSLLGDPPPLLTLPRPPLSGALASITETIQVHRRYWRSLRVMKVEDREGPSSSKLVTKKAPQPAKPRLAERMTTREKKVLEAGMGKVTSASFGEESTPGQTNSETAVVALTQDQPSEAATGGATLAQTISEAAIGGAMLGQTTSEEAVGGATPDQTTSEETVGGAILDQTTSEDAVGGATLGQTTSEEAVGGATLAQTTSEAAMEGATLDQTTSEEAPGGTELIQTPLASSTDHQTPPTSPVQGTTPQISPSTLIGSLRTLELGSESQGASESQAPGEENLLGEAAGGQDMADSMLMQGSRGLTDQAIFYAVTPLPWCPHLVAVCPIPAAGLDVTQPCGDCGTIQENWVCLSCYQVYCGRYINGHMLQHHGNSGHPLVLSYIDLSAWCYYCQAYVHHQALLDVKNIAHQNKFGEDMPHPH
# assay-text: HDAC6 enzyme activity inhibition assay (in vitro, fluorimetric)
# Format: biochemical
# condition-summary: HDAC6 selectivity over HDAC1
readout: HDAC6 selectivity (fold)

(A) C[C@@H]1CN(C(=O)c2ccc(CCC(=O)NO)cc2)C[C@H](C)N1Cc1ccccc1
(B) C[C@@H]1CN(Cc2ccc(-c3ccco3)cc2)C[C@H](C)N1Cc1ccc(C(=O)NO)cc1
(C) C[C@@H]1CN(Cc2ccc(C(=O)NO)cc2)C[C@H](C)N1C(=O)c1cccc(-c2ccoc2)c1
Lab note: order the above by reported HDAC6 selectivity (fold), lowest first, highest last. Form field (ranking): labels in requested order.
B, A, C

* * *

# experimental-system: human recombinant HDAC1 (Homo sapiens, UniProt Q13547)
# Sequence (Q13547 whole entry): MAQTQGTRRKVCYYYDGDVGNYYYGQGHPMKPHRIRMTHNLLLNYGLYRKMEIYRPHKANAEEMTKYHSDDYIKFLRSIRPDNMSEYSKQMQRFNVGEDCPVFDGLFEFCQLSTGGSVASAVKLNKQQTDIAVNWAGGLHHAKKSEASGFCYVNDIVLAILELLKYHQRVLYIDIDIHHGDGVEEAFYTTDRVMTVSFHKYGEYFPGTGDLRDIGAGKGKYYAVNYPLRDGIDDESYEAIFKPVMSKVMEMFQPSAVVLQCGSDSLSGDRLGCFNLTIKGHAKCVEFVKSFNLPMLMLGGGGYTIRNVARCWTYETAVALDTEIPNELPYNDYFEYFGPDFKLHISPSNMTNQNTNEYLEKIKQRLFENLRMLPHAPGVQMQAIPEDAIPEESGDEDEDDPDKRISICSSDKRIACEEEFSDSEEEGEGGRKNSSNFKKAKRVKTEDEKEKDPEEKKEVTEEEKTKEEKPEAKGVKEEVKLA
# assay-text: HDAC1 enzyme activity inhibition assay (in vitro, fluorimetric)
# condition-summary: human recombinant HDAC1, fluorimetric kit, 30° C. 60 minutes
pIC50: −log10 of the molar value.
readout: pIC50

C[C@@H]1CN(C(=O)Cc2cccc(-c3ccccc3)c2)C[C@H](C)N1Cc1ccc(C(=O)NO)cc1 = 5.02

(I) C[C@@H]1CN(Cc2ccc(C(=O)NO)cc2F)C[C@H](C)N1Cc1ccccc1
(II) CC(C)CCN1CCN(Cc2cccc(C(=O)N3[C@H](C)CN(Cc4ccc(C(=O)NO)cc4)C[C@@H]3C)c2)CC1
Hey, between I and II which has a smaller measured pIC50? Pick one and reply with its label.
I

* * *

# experimental-system: human recombinant HDAC1 (Homo sapiens, UniProt Q13547)
# assay-text: HDAC1 enzyme activity inhibition assay (in vitro, fluorimetric)
# condition-summary: human recombinant HDAC1, fluorimetric kit, 30° C. 60 minutes
readout: IC50 (µM)

Worked cases, IC50 given:
C[C@@H]1CN(Cc2ccc(C(=O)NO)cc2)C[C@H](C)N1C(=O)c1ccccn1 = 15.5
C[C@@H]1CN(Cc2ccc(C(=O)NO)cc2)C[C@H](C)N1Cc1ccc(CN2CCCC2)cc1 = 0.7

(P) C[C@@H]1CN(Cc2ccc(-c3ccco3)cc2)C[C@H](C)N1Cc1ccc(C(=O)NO)cc1
(Q) C[C@@H]1CN(Cc2ccc(C(=O)NO)cc2)C[C@H](C)N1Cc1cccc(-n2cccc2)c1
P or Q : whose IC50 is greater? Pick one and reply with its label.
Q

* * *

# experimental-system: human recombinant HDAC1 (Homo sapiens, UniProt Q13547)
# Construct: purchased Enzo Life Science BML-SE456
# assay-text: HDAC1 enzyme activity inhibition assay (in vitro, fluorimetric)
# Format: biochemical
# condition-summary: human recombinant HDAC1, fluorimetric kit, 30° C. 60 minutes
pIC50: −log10 of the molar value.
readout: pIC50

Worked cases, pIC50 given:
C[C@@H]1CN(Cc2cccc(CN3CCCC3)c2)C[C@H](C)N1Cc1ccc(C(=O)NO)cc1 = 5.28
C[C@@H]1CN(Cc2ccc(C(=O)NO)cc2)C[C@H](C)N1C(=O)c1cccc(CN2CCN(S(C)(=O)=O)CC2)c1 = 5.07
C[C@@H]1CN(C(=O)Nc2ccc3c(c2)CCO3)C[C@H](C)N1Cc1ccc(C(=O)NO)cc1 = 5.96
C[C@@H]1CN(C(=O)c2cccc(-c3cccnc3)c2)C[C@H](C)N1Cc1ccc(C(=O)NO)cc1 = 5.70

(I) C[C@@H]1CN(Cc2ccc(C(=O)NO)cc2)C[C@H](C)N1Cc1ccccc1C1=CCOCC1
(II) CCC(=O)N1[C@H](C)CN(Cc2ccc(C(=O)NO)cc2)C[C@@H]1C
I or II : whose pIC50 is greater? Pick one and reply with its label.
II
(II: 5.24, I: 4.66)
